experiment: In vitro plasma stability and predicted half-life (HPLC main peak area, Example 3); assay type: in vitro ADME; settings: human plasma (EDTA anticoagulant), 37°C, sampled up to 24 h, predicted half-life calculated with Winolin
Positions of bridges follow the written chain, without caps; N, C: chain ends. Non-standard residues stand in square brackets, D forms with d. Residues, ends and D or L forms follow the SMILES beside them. Bip = N[C@@H](Cc1ccc(-c2ccccc2)cc1)C(=O)O; Hyp = O=C(O)[C@@H]1C[C@@H](O)CN1; Nle = CCCC[C@H](N)C(=O)O; Orn = NCCC[C@H](N)C(=O)O
Reported half-life at 2 mg/mL values follow for various compounds
Report only the number, with the unit h understood.

COMPOUND: CCCC[C@H](NC(=O)[C@@H](NC(=O)[C@H]1CSSC[C@H](NC(=O)[C@H](CO)NC(=O)CN)C(=O)N[C@@H](CO)C(=O)N[C@H]([C@H](C)O)C(=O)N2C[C@H](O)C[C@H]2C(=O)N2C[C@H](O)C[C@H]2C(=O)N[C@@H](C)C(=O)N1)C(C)C)C(=O)N[C@@H](Cc1ccc(-c2ccccc2)cc1)C(=O)N[C@@H](CCCN)C(N)=O [AJ003-35] (H-GSCS[dT][Hyp][Hyp]A[dC]V[Nle][Bip][Orn]-NH2; disulfide 3-9)
half-life at 2 mg/mL / h: 45.3

Query block: Look up half-life at 2 mg/mL: CCCC[C@H](NC(=O)[C@@H](NC(=O)[C@H]1CSSC[C@H](NC(=O)[C@H](CO)NC(=O)CN)C(=O)N[C@@H](CO)C(=O)N[C@H]([C@H](C)O)C(=O)N2C[C@H](O)C[C@H]2C(=O)N2C[C@H](O)C[C@H]2C(=O)N[C@@H](C)C(=O)N1)C(C)C)C(=O)N[C@@H](Cc1ccccc1)C(=O)N[C@@H](CCCN)C(N)=O [AJ003-38] (H-GSCS[dT][Hyp][Hyp]A[dC]V[Nle]F[Orn]-NH2; disulfide 3-9)
Result block: 26.7

###

experiment: In vitro plasma stability and predicted half-life (HPLC main peak area, Example 3); assay type: in vitro ADME; conditions: human plasma (EDTA anticoagulant), 37°C, sampled up to 24 h, predicted half-life calculated with Winolin
Positions of bridges follow the written chain, without caps; N, C: chain ends. Non-standard residues stand in square brackets, D forms with d. Residues, ends and D or L forms follow the SMILES beside them. Hyp = O=C(O)[C@@H]1C[C@@H](O)CN1; Nle = CCCC[C@H](N)C(=O)O; Orn = NCCC[C@H](N)C(=O)O
METRIC NAME: half-life at 2 mg/mL (h)
Report only the number, with the unit h understood.

Query block: Look up half-life at 2 mg/mL: CCCC[C@H](NC(=O)[C@@H](NC(=O)[C@H]1CSSC[C@H](NC(=O)[C@H](CO)NC(=O)CN)C(=O)N[C@@H](CO)C(=O)N[C@H]([C@H](C)O)C(=O)N2C[C@H](O)C[C@H]2C(=O)N2C[C@H](O)C[C@H]2C(=O)N[C@@H](C)C(=O)N1)C(C)C)C(=O)N[C@@H](Cc1c[nH]c2ccccc12)C(=O)N[C@@H](CCCN)C(N)=O [AJ003-41] (H-GSCS[dT][Hyp][Hyp]A[dC]V[Nle]W[Orn]-NH2; disulfide 3-9)
Result block: 30
